Just for reference, ChEMBL document CHEMBL4376849 is where these values come from.

test: Selectivity index, ratio of IC50 for human HepG2 cells to IC50 for Plasmodium falciparum 3D7; assay type: toxicity; details: read-out: Ratio IC50
Listed here are compounds together with their documented selectivity ratio.
measured.attribute: selectivity ratio

smiles.text	qualifier.sign	measurement
Cc1nccc2c1[nH]c1cc(OCc3cn(C/C=C/c4ccc5c(c4)OCO5)nn3)ccc12	=	35
Cc1nccc2c1[nH]c1cc(OCc3cn(C/C=C/c4cccc(F)c4)nn3)ccc12	=	16
COc1ccc(/C=C/Cn2cc(Cn3c4cc(OC)ccc4c4ccnc(C)c43)nn2)cc1	>	197
Cc1nccc2c1[nH]c1cc(OCc3cn(C/C=C/c4ccccc4)nn3)ccc12	=	37
C/C(=C\c1ccccc1)Cn1cc(COc2ccc3c(c2)[nH]c2c(C)nccc23)nn1	=	77
COc1ccc2c3ccnc(C)c3n(Cc3cn(C/C=C/c4ccc(Cl)cc4)nn3)c2c1	>	568
Cc1nccc2c3ccc(OCc4cn(C/C=C/c5cccc(F)c5)nn4)cc3n(Cc3cn(C/C=C/c4cccc(F)c4)nn3)c12	=	2
Cc1nccc2c1[nH]c1cc(OCc3cn(C/C=C/c4cccc(Br)c4)nn3)ccc12	=	22
COc1ccc(/C=C/Cn2cc(COc3ccc4c(c3)[nH]c3c(C)nccc34)nn2)cc1	=	12
COc1ccc2c3ccnc(C)c3n(Cc3cn(C/C(C)=C/c4ccccc4)nn3)c2c1	=	15
COc1ccc2c3ccnc(C)c3n(Cc3cn(C/C=C/c4ccc(F)c(F)c4)nn3)c2c1	=	15
Cc1nccc2c3ccc(OCc4cn(C/C=C/c5ccc(Cl)cc5)nn4)cc3n(Cc3cn(C/C=C/c4ccc(Cl)cc4)nn3)c12	=	116
Cc1nccc2c1[nH]c1cc(OCc3cn(C/C=C/c4ccc(F)cc4)nn3)ccc12	=	11
COc1ccc(/C=C/Cn2cc(COc3ccc4c5ccnc(C)c5n(Cc5cn(C/C=C/c6ccc(OC)cc6)nn5)c4c3)nn2)cc1	=	333
COc1ccc2c3ccnc(C)c3n(Cc3cn(C/C=C/c4ccc5c(c4)OCO5)nn3)c2c1	=	18
Cc1nccc2c1[nH]c1cc(OCc3cn(C/C=C/c4ccc(Cl)cc4)nn3)ccc12	=	59
COc1ccc2c3ccnc(C)c3n(Cc3cn(C/C=C/c4ccc(F)cc4)nn3)c2c1	=	10
Cc1nccc2c3ccc(OCc4cn(C/C=C/c5ccccc5)nn4)cc3n(Cc3cn(C/C=C/c4ccccc4)nn3)c12	=	15

----------
system: Plasmodium berghei; assay: Antiplasmodial activity against liver stage luciferase expressing Plasmodium berghei sporozoites infected in human Huh7 cells preincubated with host cells for 1 hr followed by plasmodium infection by bioluminescence assay; assay type: functional, organism-based; conditions: Huh-7
Field 'label' (enum: fulfilled / not fulfilled). Set to fulfilled when IC50 is strictly under 700 nM; else not fulfilled.

smiles.text	qualitative.label
C/C(=C\c1ccccc1)Cn1cc(COc2ccc3c(c2)[nH]c2c(C)nccc23)nn1	fulfilled
COc1ccc(/C=C/Cn2cc(COc3ccc4c5ccnc(C)c5n(Cc5cn(C/C=C/c6ccc(OC)cc6)nn5)c4c3)nn2)cc1	fulfilled
COc1ccc2c3ccnc(C)c3n(Cc3cn(C/C=C/c4ccc(Cl)cc4)nn3)c2c1	not fulfilled
COc1ccc2c3ccnc(C)c3n(Cc3cn(C/C=C/c4cccc(Br)c4)nn3)c2c1	not fulfilled
COc1ccc2c3ccnc(C)c3n(Cc3cn(C/C=C/c4ccccc4)nn3)c2c1	not fulfilled

----------
experiment: Selectivity index, ratio of IC50 for human HepG2 cells to IC50 for Plasmodium falciparum 3D7; assay type: toxicity; conditions: read-out: Ratio IC50
Field 'label' (enum: Yes / No). Set to Yes when selectivity ratio is strictly under 20; else No.

smiles.text	qualitative.label
COc1ccc2c3ccnc(C)c3n(Cc3cn(C/C=C/c4ccccc4)nn3)c2c1	No
Cc1nccc2c3ccc(OCc4cn(C/C=C/c5ccc(F)c(F)c5)nn4)cc3n(Cc3cn(C/C=C/c4ccc(F)c(F)c4)nn3)c12	Yes
Cc1nccc2c3ccc(OCc4cn(C/C=C/c5ccc6c(c5)OCO6)nn4)cc3n(Cc3cn(C/C=C/c4ccc5c(c4)OCO5)nn3)c12	No
C/C(=C\c1ccccc1)Cn1cc(COc2ccc3c4ccnc(C)c4n(Cc4cn(C/C(C)=C/c5ccccc5)nn4)c3c2)nn1	Yes
COc1ccc2c3ccnc(C)c3n(Cc3cn(C/C=C/c4cccc(F)c4)nn3)c2c1	No
COc1ccc2c3ccnc(C)c3n(Cc3cn(C/C=C/c4cccc(Br)c4)nn3)c2c1	No
Cc1nccc2c1[nH]c1cc(OCc3cn(C/C=C/c4ccc(F)c(F)c4)nn3)ccc12	Yes
